# MEASURED TARGET: Histone deacetylase 1 (Homo sapiens, UniProt Q13547)
# Sequence (Q13547 whole entry): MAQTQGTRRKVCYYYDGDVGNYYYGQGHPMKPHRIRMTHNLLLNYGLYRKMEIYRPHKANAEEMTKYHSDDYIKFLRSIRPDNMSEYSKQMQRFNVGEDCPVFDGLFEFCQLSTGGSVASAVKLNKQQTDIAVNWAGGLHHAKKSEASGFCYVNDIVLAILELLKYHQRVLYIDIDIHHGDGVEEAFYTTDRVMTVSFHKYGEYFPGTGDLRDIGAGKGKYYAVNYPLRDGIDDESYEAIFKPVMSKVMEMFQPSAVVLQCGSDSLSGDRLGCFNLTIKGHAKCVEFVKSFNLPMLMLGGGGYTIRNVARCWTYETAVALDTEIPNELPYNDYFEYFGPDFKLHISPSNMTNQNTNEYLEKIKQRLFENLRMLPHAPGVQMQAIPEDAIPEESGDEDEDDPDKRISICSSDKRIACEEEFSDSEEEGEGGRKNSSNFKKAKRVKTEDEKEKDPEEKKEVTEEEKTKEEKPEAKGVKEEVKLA
# ASSAY OVERVIEW: Inhibition of HDAC1 (unknown origin) using 6-carboxyfluorescein peptide as substrate preincubated with compound for 6 hrs followed by substrate addition by electrophoretic mobility shift assay
RECORDED METRIC: IC50 (nM)

a: Nc1ccccc1NC(=O)c1ccc(CNC(=O)OC2CCN(S(=O)(=O)c3c(F)c(F)c(F)c(F)c3F)CC2)cc1
b: Nc1ccccc1NC(=O)c1ccc(CNC(=O)OC2CCCCC2)cc1
Query: // which entry reports the smaller IC50, a or b ? Label of pick, please.
Response: b

###

# MEASURED TARGET: Histone deacetylase 8 (Homo sapiens)
# Sequence (Q9BY41 whole entry): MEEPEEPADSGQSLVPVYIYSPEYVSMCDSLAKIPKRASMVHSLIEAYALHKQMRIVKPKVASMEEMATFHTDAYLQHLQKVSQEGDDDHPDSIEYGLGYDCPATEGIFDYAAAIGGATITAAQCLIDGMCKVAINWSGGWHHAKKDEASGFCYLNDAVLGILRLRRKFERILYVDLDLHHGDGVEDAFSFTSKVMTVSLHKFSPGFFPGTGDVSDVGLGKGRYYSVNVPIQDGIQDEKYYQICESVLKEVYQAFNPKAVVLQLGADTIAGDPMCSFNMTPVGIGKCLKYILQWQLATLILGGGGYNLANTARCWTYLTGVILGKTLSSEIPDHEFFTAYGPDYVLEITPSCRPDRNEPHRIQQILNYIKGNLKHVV
# ASSAY OVERVIEW: Inhibition of full length recombinant human HDAC8 expressed in Sf9 cells using 6-carboxyfluorescein peptide as substrate preincubated with compound followed by substrate addition and measured after 3 hrs by electrophoretic mobility shift assay
RECORDED METRIC: IC50

STRUCTURE | READING
Nc1ccccc1NC(=O)c1ccc(CNC(=O)OC2CCCCC2)cc1 | > 10 µM

# next compound below
Entry `Nc1ccccc1NC(=O)c1ccc(CNC(=O)OC2CCN(S(=O)(=O)c3c(F)c(F)c(F)c(F)c3F)CC2)cc1` , IC50 reported as > 10 µM

###

# ASSAY OVERVIEW: AUCinfinity in CD-1 mouse at 10 mg/kg, ip measured upto 12 hrs by LC-MS/MS analysis
# Assay type: ADME, organism-based
# Design: time < 12 hrs, dose 10 mg/kg, route ip
# CONDITION SET: in vivo
RECORDED METRIC: AUC(0-inf) (ng·h/mL)

1: Nc1ccccc1NC(=O)c1ccc(CNC(=O)OC2CCCCC2)cc1
2: Nc1ccccc1NC(=O)c1ccc(CNC(=O)OCc2cccnc2)cc1
Query: Which of the two items, 1 and 2 , has the greater recorded AUC(0-inf)? Label of pick, please.
Response: 2

###

# MEASURED TARGET: Protein deacetylase HDAC6 (Homo sapiens)
# Sequence (Q9UBN7 whole entry): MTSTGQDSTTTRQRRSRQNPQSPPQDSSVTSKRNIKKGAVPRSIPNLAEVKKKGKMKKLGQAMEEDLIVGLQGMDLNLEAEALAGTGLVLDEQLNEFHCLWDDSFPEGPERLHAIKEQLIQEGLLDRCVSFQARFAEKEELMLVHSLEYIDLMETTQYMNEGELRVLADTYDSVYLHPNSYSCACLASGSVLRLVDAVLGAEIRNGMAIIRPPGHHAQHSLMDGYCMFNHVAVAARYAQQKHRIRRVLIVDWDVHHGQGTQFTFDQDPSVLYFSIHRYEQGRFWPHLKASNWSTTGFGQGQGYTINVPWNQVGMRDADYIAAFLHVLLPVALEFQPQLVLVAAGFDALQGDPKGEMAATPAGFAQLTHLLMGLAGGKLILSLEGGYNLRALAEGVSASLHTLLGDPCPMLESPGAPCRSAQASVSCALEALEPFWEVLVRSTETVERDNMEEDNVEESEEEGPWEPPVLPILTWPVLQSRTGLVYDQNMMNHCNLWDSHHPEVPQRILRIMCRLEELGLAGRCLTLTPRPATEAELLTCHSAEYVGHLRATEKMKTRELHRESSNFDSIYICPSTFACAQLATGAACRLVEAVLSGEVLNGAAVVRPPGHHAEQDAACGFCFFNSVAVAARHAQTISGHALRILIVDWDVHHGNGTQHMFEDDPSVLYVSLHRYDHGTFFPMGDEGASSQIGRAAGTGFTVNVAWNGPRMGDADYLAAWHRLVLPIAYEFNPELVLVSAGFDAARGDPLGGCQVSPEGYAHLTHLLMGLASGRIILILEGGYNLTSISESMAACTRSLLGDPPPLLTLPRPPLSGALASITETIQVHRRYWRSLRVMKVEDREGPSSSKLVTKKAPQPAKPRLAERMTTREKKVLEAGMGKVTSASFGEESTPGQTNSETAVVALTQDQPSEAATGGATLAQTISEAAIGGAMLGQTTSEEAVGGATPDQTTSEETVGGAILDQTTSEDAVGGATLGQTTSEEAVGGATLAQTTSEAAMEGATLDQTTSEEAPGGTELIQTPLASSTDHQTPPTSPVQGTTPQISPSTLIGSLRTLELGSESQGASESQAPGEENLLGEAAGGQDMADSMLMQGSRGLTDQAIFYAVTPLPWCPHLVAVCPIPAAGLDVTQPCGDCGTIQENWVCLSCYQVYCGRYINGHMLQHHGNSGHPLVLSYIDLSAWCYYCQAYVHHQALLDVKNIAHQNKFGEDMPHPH
# ASSAY OVERVIEW: Inhibition of full length recombinant human HDAC6 expressed in Sf9 cells using 6-carboxyfluorescein peptide as substrate preincubated with compound for 6 hrs followed by substrate addition and measured after 5 hrs by electrophoretic mobility shift assay
pIC50: −log10 of the molar value.
RECORDED METRIC: pIC50

Entry `Nc1ccccc1NC(=O)c1ccc(CNC(=O)OC2CCN(S(=O)(=O)c3c(F)c(F)c(F)c(F)c3F)CC2)cc1` , pIC50 reported as < 5.00

###

# MEASURED TARGET: Histone deacetylase 3 (Homo sapiens)
# ASSAY OVERVIEW: Inhibition of full length recombinant human HDAC3 expressed in Sf9 cells using 6-carboxyfluorescein peptide as substrate preincubated with compound for 2 hrs followed by substrate addition and measured after 3 hrs by electrophoretic mobility shift assay
# Format: cell-based
RECORDED METRIC: IC50 (nM)
Give just the numeric value; nM need not be written.

With Histone deacetylase 3 (Homo sapiens) as the test system, `Nc1ccccc1NC(=O)c1ccc(CNC(=O)OC2CCCCC2)cc1` showed IC50 of 73

###

# MEASURED TARGET: Histone deacetylase 2 (Homo sapiens, UniProt Q92769)
# Sequence (Q92769 whole entry): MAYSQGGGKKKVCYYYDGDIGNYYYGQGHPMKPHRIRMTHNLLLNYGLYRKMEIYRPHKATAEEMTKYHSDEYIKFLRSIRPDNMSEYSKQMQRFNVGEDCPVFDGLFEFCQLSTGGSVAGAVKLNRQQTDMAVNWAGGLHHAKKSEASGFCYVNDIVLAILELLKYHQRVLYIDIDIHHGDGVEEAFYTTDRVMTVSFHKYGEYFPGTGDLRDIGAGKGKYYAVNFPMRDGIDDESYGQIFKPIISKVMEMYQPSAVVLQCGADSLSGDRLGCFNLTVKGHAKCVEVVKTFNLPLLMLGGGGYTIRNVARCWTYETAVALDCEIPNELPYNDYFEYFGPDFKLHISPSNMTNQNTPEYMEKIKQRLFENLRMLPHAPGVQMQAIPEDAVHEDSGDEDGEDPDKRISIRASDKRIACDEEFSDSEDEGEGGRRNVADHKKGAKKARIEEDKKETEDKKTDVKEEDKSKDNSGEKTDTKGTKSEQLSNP
# ASSAY OVERVIEW: Inhibition of HDAC2 (unknown origin) using 6-carboxyfluorescein peptide as substrate preincubated with compound for 6 hrs followed by substrate addition by electrophoretic mobility shift assay
RECORDED METRIC: IC50 (µM)

Before answering, review these 5 worked examples.
STRUCTURE | MEASURED TARGET | READOUT UNIT | READING
C=C=CC(=O)N1CCC(OC(=O)NCc2ccc(C(=O)Nc3ccccc3N)cc2)CC1 | Histone deacetylase 2 (Homo sapiens, UniProt Q92769) | µM | 0.393
C#CC(=O)N1CCC(OC(=O)NCc2ccc(C(=O)Nc3ccccc3N)cc2)CC1 | Histone deacetylase 2 (Homo sapiens, UniProt Q92769) | µM | 0.328
C=CC(=O)N1CCC(OC(=O)NCc2ccc(C(=O)Nc3ccccc3N)cc2)CC1 | Histone deacetylase 2 (Homo sapiens, UniProt Q92769) | µM | 0.379
C=CS(=O)(=O)N1CCC(OC(=O)NCc2ccc(C(=O)Nc3ccccc3N)cc2)CC1 | Histone deacetylase 2 (Homo sapiens, UniProt Q92769) | µM | 0.38
CN(C)C/C=C/C(=O)N1CCC(OC(=O)NCc2ccc(C(=O)Nc3ccccc3N)cc2)CC1 | Histone deacetylase 2 (Homo sapiens, UniProt Q92769) | µM | 0.18

1: Nc1ccccc1NC(=O)c1ccc(CNC(=O)OC2CCN(C(=O)CCl)CC2)cc1
2: Nc1ccccc1NC(=O)c1ccc(CNC(=O)OC2CCN(S(=O)(=O)c3c(F)c(F)c(F)c(F)c3F)CC2)cc1
Query: // which entry reports the smaller IC50, 1 or 2 ? Label of pick, please.
Response: 2
(2: 0.154 µM, 1: 0.72 µM)

###

# MEASURED TARGET: Histone deacetylase 5 (Homo sapiens, UniProt Q9UQL6)
# Sequence (Q9UQL6 whole entry): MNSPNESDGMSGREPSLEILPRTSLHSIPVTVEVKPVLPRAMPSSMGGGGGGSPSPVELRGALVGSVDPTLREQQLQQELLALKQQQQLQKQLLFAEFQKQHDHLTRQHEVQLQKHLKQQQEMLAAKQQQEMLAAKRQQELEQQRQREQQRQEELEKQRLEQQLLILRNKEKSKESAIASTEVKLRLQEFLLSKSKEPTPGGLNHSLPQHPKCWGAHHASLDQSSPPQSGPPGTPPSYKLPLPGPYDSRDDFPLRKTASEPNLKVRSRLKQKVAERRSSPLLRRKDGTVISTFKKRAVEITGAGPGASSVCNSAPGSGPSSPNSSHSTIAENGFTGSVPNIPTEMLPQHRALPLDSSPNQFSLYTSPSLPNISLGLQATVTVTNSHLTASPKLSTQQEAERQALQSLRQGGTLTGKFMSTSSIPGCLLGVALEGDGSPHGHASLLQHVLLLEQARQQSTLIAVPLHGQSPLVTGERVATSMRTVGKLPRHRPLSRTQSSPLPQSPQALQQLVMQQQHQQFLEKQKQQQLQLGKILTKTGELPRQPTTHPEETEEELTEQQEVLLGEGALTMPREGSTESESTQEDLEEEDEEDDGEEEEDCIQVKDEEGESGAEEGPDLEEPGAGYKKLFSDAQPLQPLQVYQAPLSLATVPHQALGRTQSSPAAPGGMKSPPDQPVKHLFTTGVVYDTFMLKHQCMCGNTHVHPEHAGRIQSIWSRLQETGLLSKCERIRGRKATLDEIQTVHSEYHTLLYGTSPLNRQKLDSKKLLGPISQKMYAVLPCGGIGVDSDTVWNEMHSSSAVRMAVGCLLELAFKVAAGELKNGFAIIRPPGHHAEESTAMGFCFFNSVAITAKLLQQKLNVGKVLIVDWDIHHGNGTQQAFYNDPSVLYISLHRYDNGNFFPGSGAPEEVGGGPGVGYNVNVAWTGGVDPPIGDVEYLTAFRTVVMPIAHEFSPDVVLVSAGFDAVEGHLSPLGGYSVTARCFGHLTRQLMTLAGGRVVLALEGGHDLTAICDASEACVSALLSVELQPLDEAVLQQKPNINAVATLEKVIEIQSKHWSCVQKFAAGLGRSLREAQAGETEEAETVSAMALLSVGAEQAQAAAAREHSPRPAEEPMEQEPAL
RECORDED METRIC: IC50

With Histone deacetylase 5 (Homo sapiens, UniProt Q9UQL6) as the test system, `Nc1ccccc1NC(=O)c1ccc(CNC(=O)OC2CCN(S(=O)(=O)c3c(F)c(F)c(F)c(F)c3F)CC2)cc1` showed IC50 of > 10 µM

###

# MEASURED TARGET: Histone deacetylase 1 (Homo sapiens)
# ASSAY OVERVIEW: Inhibition of HDAC1 (unknown origin) using 6-carboxyfluorescein peptide as substrate preincubated with compound followed by substrate addition by electrophoretic mobility shift assay
pIC50: −log10 of the molar value.
RECORDED METRIC: pIC50

Before answering, review these 5 worked examples.
STRUCTURE | pIC50
Nc1ccccc1NC(=O)c1ccc(CNC(=O)OC2CCN(S(=O)(=O)c3c(F)c(F)c(F)c(F)c3F)CC2)cc1 | 6.62
C#CC(=O)N1CCC(OC(=O)NCc2ccc(C(=O)Nc3ccccc3N)cc2)CC1 | 6.18
C=CS(=O)(=O)N1CCC(OC(=O)NCc2ccc(C(=O)Nc3ccccc3N)cc2)CC1 | 6.35
C=CC(=O)N1CCC(OC(=O)NCc2ccc(C(=O)Nc3ccccc3N)cc2)CC1 | 6.23
Nc1ccccc1NC(=O)c1ccc(CNC(=O)OC2CCCCC2)cc1 | 6.04

P: C=C=CC(=O)N1CCC(OC(=O)NCc2ccc(C(=O)Nc3ccccc3N)cc2)CC1
Q: Nc1ccccc1NC(=O)c1ccc(CNC(=O)OC2CCN(S(=O)(=O)CCl)CC2)cc1
R: CN(C)C/C=C/C(=O)N1CCC(OC(=O)NCc2ccc(C(=O)Nc3ccccc3N)cc2)CC1
Query: Your job: order these 3 records by pIC50, ascending. Form field (ranking): labels in requested order.
Response: P, Q, R

###

# MEASURED TARGET: Histone deacetylase 3 (Homo sapiens, UniProt O15379)
# Sequence (O15379 whole entry): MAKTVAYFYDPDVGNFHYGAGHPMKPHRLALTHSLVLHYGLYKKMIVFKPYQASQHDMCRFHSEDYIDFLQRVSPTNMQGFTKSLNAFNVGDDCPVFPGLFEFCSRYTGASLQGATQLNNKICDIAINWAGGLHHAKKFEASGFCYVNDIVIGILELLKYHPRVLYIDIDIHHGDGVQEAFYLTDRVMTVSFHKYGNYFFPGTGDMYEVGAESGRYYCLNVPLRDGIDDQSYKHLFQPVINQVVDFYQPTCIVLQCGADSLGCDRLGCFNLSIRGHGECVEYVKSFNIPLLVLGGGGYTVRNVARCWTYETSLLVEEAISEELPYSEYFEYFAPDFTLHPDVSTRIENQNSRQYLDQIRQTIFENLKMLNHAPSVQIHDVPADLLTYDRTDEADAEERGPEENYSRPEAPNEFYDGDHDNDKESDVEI
# ASSAY OVERVIEW: Inhibition of full length recombinant human HDAC3 expressed in Sf9 cells using 6-carboxyfluorescein peptide as substrate preincubated with compound followed by substrate addition and measured after 3 hrs by electrophoretic mobility shift assay
# Type: cell-based
RECORDED METRIC: IC50 (µM)
Give just the numeric value; µM need not be written.

Entry `Nc1ccccc1NC(=O)c1ccc(CNC(=O)OC2CCCCC2)cc1` , IC50 reported as 0.273

###

# MEASURED TARGET: Histone deacetylase 3 (Homo sapiens)
# ASSAY OVERVIEW: Inhibition of full length recombinant human HDAC3 expressed in Sf9 cells using 6-carboxyfluorescein peptide as substrate preincubated with compound for 6 hrs followed by substrate addition and measured after 3 hrs by electrophoretic mobility shift assay
# Assay type: cell-based
pIC50: −log10 of the molar value.
RECORDED METRIC: pIC50

A: Nc1ccccc1NC(=O)c1ccc(CNC(=O)OC2CCCCC2)cc1
B: Nc1ccccc1NC(=O)c1ccc(CNC(=O)OC2CCN(S(=O)(=O)c3c(F)c(F)c(F)c(F)c3F)CC2)cc1
Query: Which of the two items, A and B , has the greater recorded pIC50? Label of pick, please.
Response: A

###

# ASSAY OVERVIEW: MRT in CD-1 mouse at 10 mg/kg, ip measured upto 12 hrs by LC-MS/MS analysis
# Type: ADME, organism-based
# CONDITION SET: in vivo
RECORDED METRIC: MRT (min)
Give just the numeric value; min need not be written.

Entry `Nc1ccccc1NC(=O)c1ccc(CNC(=O)OCc2cccnc2)cc1` , MRT reported as 57.6

###

# ASSAY OVERVIEW: Glutathione reactivity assessed as compound consumption at 500 nM incubated for 16 hrs by LC-MS/MS analysis
# Assay type: ADME
# CONDITION SET: glutathione solution, read-out: Drug metabolism
// reported degraded at 16 h, 0.5 µM per item

MOLECULE | READING
Nc1ccccc1NC(=O)c1ccc(CNC(=O)OCc2cccnc2)cc1 [ENTINOSTAT] | < 10%

Entry `Nc1ccccc1NC(=O)c1ccc(CNC(=O)OC2CCCCC2)cc1` , degraded at 16 h, 0.5 µM reported as < 10%
